Target: T1, recombinant human MASP1 active protease (amino acids 297-699, C-terminal His Tag) (human, UniProt P48740 297-699)
T1 sequence: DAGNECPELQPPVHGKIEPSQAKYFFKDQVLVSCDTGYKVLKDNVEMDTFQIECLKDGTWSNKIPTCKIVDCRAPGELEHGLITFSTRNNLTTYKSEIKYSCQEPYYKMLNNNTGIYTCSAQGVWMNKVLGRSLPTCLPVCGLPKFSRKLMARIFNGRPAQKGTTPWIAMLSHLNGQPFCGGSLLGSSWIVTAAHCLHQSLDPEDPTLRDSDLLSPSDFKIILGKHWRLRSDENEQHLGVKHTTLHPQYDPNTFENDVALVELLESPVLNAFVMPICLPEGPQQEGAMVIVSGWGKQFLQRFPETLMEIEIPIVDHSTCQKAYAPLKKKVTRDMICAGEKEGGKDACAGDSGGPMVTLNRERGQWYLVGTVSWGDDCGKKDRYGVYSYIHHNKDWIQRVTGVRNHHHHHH
Test: cell-based or functional assay
Numbered stars: 1 amine (or outer) side, 2 acyl side, 3 side chain; on linkers, the order of the positions; unused ones are H or OH. Bridge positions count the residues as written; N and C are the ends. Square brackets hold non-standard residues; d marks the D form. Ends that are not written are not given here. X17 = 2‑((1S,2S)-1-(Amino)-2-methylbutyl)‑1,3‑oxazole‑4‑carboxylic acid, CC[C@H](C)[C@H](N[*:1])c1nc(C(=O)[*:2])co1; Oic = O=C(O)[C@@H]1C[C@@H]2CCCC[C@@H]2N1; tBuAla = CC(C)(C)C[C@H](N)C(=O)O; Pen = CC(C)(S)[C@H](N)C(=O)O; NMeC = CN[C@@H](CS)C(=O)O
Reported human MASP1 IC50 values for a set of binders

binder: AICSRS[tBuAla]PPI[NMeC][X17]D-NH2 (disulfide 3-11; N-terminus assumed; SMILES CC[C@H](C)[C@H](NC(=O)[C@H](C)N)C(=O)N[C@H]1CSSC[C@@H](C(=O)N[C@H](c2nc(C(=O)N[C@@H](CC(=O)O)C(N)=O)co2)[C@@H](C)CC)N(C)C(=O)[C@H]([C@@H](C)CC)NC(=O)[C@@H]2CCCN2C(=O)[C@@H]2CCCN2C(=O)[C@H](CC(C)(C)C)NC(=O)[C@H](CO)NC(=O)[C@H](CCCNC(=N)N)NC(=O)[C@H](CO)NC1=O)
human MASP1 IC50: 1.4 nM

Lookup: Which human MASP1 IC50 value is on record for [dA]ICSRSLP[Oic]I[Pen]I-OH (disulfide 3-11; N-terminus assumed; SMILES CC[C@H](C)[C@H](NC(=O)[C@H]1NC(=O)[C@H]([C@@H](C)CC)NC(=O)[C@@H]2C[C@@H]3CCCC[C@@H]3N2C(=O)[C@@H]2CCCN2C(=O)[C@H](CC(C)C)NC(=O)[C@H](CO)NC(=O)[C@H](CCCNC(=N)N)NC(=O)[C@H](CO)NC(=O)[C@@H](NC(=O)[C@@H](NC(=O)[C@@H](C)N)[C@@H](C)CC)CSSC1(C)C)C(=O)O) [aIC+SRSLP-(Oic)-I-(Pen)+I-OH] ?
Found: 2.6 nM
